Molecular target: UniProt P00338
Assay: Binding affinity to 6-His-tagged human LDHA (2 to 322 amino acid residue) expressed in Escherichia coli BL21 (DE3) cells by NMR analysis in presence of NADH
Conditions: read-out: Kd
What log10 of Kd was measured for each of the following?
Hey, these are logged values: log10 of Kd, µM being the unit before logging.

Challenge: Lab request: please report log10 of Kd under test system UniProt P00338 for CCCSc1nc2ccc(NC(=O)CCC(=O)O)cc2s1
Response given: 1.96

Challenge: Also NC(=O)C1=CN([C@@H]2O[C@H](COP(=O)(O)O)[C@@H](O)[C@H]2O)C=CC1 ?
Response given: 3.60

Challenge: Again, but for COc1ccc(CC(C(=O)O)C(=O)O)cc1
Response given: 2.38

Challenge: What would you report for O=c1[nH]n(-c2ccccc2)c2ncccc12 ?
Response given: 2.48

Challenge: Same again, this time with NS(=O)(=O)c1ccc(O)c2ccccc12
Response given: 2.60

Challenge: Same again, this time with O=C(O)c1ccc2ccccc2c1O [CARBOXYNAPHTHOL]
Response given: 2.81

Challenge: What would you report for c1cncc(-c2nc3ccccc3[nH]2)c1 ?
Response given: 3.15

Challenge: Now the same for Nc1ncnc2c1ncn2[C@@H]1O[C@H](COP(=O)(O)O)[C@@H](O)[C@H]1O [ADENOSINE PHOSPHATE]
Response given: 2.81

Challenge: # repeat for O=C(O)CC(=O)O [MALONIC ACID]
Response given: 3.70

Challenge: What about this molecule? COCCNc1ncnc2ccccc12
Response given: 3.38

Challenge: Subsequent entry: Cc1nc2ccc(NC(=O)CCC(=O)O)cc2s1
Response given: 2.73

###

Target: L-lactate dehydrogenase A chain (Homo sapiens, UniProt P00338)
Assay: Binding affinity to 6-His-tagged human LDHA (2 to 322 amino acid residue) expressed in Escherichia coli BL21 (DE3) cells by SPR analysis
Conditions: read-out: Kd
readoutKind: pKd
Would you please state pKd, meaning minus log10 of the concentration in mol/L, as a bare number?

Challenge: Which value of pKd has been reported for COCCNc1ncnc2ccccc12 in the records?
Response given: 2.52

Challenge: Next compound up: Cc1nc2ccc(NC(=O)CCNC(=O)NCCc3ccc(OC(C(=O)O)C(=O)O)cc3)cc2s1
Response given: 5.92

Challenge: Would you mind doing CCCSc1nc2ccc(NC(=O)CCNC(=O)NCCc3ccc(OC(C(=O)O)C(=O)O)cc3)cc2s1 as well?
Response given: 6.74

Challenge: What do you get for O=c1[nH]n(-c2ccccc2)c2ncccc12 ?
Response given: 2.80

Challenge: Same again, this time with Cc1nc2ccc(NC(=O)CCC(=O)O)cc2s1
Response given: 3.30

Challenge: Would you kindly repeat that for CCCSc1nc2ccc(NC(=O)CCNC(N)=O)cc2s1 ?
Response given: 4.46

Challenge: Lookup COc1ccc(CC(C(=O)O)C(=O)O)cc1
Response given: 2.96

Challenge: What do you get for CCCSc1nc2ccc(NC(=O)CCC(=O)O)cc2s1 ?
Response given: 4.40

Challenge: Please do the same for CC(=O)Nc1ccc2nc(C)sc2c1 as well.
Response given: 3.10

Challenge: What about CCCSc1nc2ccc(NC(=O)CCNC(=O)NCCc3ccc(CC(C(=O)O)C(=O)O)cc3)cc2s1 ?
Response given: 7.22

Challenge: Ok, now Cc1nc2ccc(NC(=O)CCNC(=O)NCCOc3ccc(CCC(=O)O)cc3)cc2s1
Response given: 5.49

Challenge: Then CCCSc1nc2ccc(NC(=O)CCNC(=O)CCCc3ccc(CC(C(=O)O)C(=O)O)cc3)cc2s1 ?
Response given: 8.10

Challenge: Repeat with NC(=O)C1=CN([C@@H]2O[C@H](COP(=O)(O)OP(=O)(O)OC[C@H]3O[C@@H](n4cnc5c(N)ncnc54)[C@H](O)[C@@H]3O)[C@@H](O)[C@H]2O)CCC1
Response given: 4.89

Challenge: Also CCCSc1nc2ccc(NC(=O)CCNC(=O)NCCOc3ccc(CC(C(=O)O)C(=O)O)cc3)cc2s1 , if possible.
Response given: 7.34
